// IC50 lookup, one value per entry
- study target: HIV-1 integrase (wild-type IN) (Human immunodeficiency virus type 1 group M subtype B, UniProt P12497)
- method notes: HIV-1 integrase strand transfer assay (32P-labeled 21-mer, gel)
- Type: biochemical
- condition notes: wild-type IN 200 nM, 7.5 mM MnCl2; read-out: Inhibition of IN Catalytic Activities IC50 (μM) Strand Transfer
endpoint: IC50 (µM)

[[record]]
query_smiles = "O=C(CN1C(=O)C(=Cc2ccccc2Cl)SC1=S)Nc1ccc([N+](=O)[O-])cc1O"
endpoint = "IC50"
comparative_sign = ">"
experimental_result = 100

[[record]]
query_smiles = "O=C(CCCN1C(=O)C(=Cc2cccs2)SC1=S)Nc1ccc(O)c(C(=O)O)c1"
endpoint = "IC50"
comparative_sign = "="
experimental_result = 35

[[record]]
query_smiles = "O=C(CCN1C(=O)C(=Cc2ccc3c(c2)OCO3)SC1=S)Nc1ccc(O)c(C(=O)O)c1"
endpoint = "IC50"
comparative_sign = "="
experimental_result = 17

[[record]]
query_smiles = "O=C(N/N=C/c1ccc(-c2ccc(O)c(C(=O)O)c2)o1)c1cccnc1"
endpoint = "IC50"
comparative_sign = "="
experimental_result = 9

[[record]]
query_smiles = "Cn1c(=O)c(C(=O)Nc2ccccc2C(F)(F)F)c(O)c2ccccc21"
endpoint = "IC50"
comparative_sign = "="
experimental_result = 28

[[record]]
query_smiles = "Cc1ccc2[nH]c(/C(C#N)=C\\c3ccc(-c4ccc(C(=O)O)c(O)c4)o3)nc2c1"
endpoint = "IC50"
comparative_sign = "="
experimental_result = 8

[[record]]
query_smiles = "O=C(O)c1cccc(-c2ccc(/C=N/Nc3nc4nonc4nc3Nc3ccc(F)cc3)o2)c1"
endpoint = "IC50"
comparative_sign = "="
experimental_result = 4

[[record]]
query_smiles = "Oc1cccc2ccc(/C=N/N=C/c3ccc4cccc(O)c4n3)nc12"
endpoint = "IC50"
comparative_sign = "="
experimental_result = 69

[[record]]
query_smiles = "CCn1cc(C(=O)O)c(=O)c2cc(F)c(NNC(=O)C3CCCCC3)cc21"
endpoint = "IC50"
comparative_sign = ">"
experimental_result = 100

[[record]]
query_smiles = "C=CCn1c(=O)c(C(=O)Nc2ccccc2OC)c(O)c2ccccc21"
endpoint = "IC50"
comparative_sign = "="
experimental_result = 25

[[record]]
query_smiles = "CCn1cc(C(=O)O)c(=O)c2cc(F)c(N3CCN(C(=O)c4cccc(C)c4)CC3)cc21"
endpoint = "IC50"
comparative_sign = ">"
experimental_result = 100

[[record]]
query_smiles = "O=C(Nc1ncccc1O)c1c(O)c2cccc3c2n(c1=O)CCC3"
endpoint = "IC50"
comparative_sign = "="
experimental_result = 15

[[record]]
query_smiles = "CCOc1cc(/C=C2/C(=N)N3N=C(C(C)(F)F)SC3=NC2=O)ccc1OCc1ccc(F)cc1"
endpoint = "IC50"
comparative_sign = "="
experimental_result = 19

[[record]]
query_smiles = "O=C(O)c1cc(NC(=O)c2cccc3ccccc23)c(C(=O)O)cc1NC(=O)c1cccc2ccccc12"
endpoint = "IC50"
comparative_sign = "="
experimental_result = 21

[[record]]
query_smiles = "CCOC(=O)CCc1cc(C(=O)OCC)c(CCC(=O)OCC)cc1C(=O)OCC"
endpoint = "IC50"
comparative_sign = "="
experimental_result = 94

[[record]]
query_smiles = "CCOc1cc(/C=C2\\SC(=S)N(NC(=O)c3ccccc3O)C2=O)ccc1O"
endpoint = "IC50"
comparative_sign = "="
experimental_result = 38

[[record]]
query_smiles = "O=C(CN1C(=O)C(=Cc2ccccc2Cl)SC1=S)Nc1cc([N+](=O)[O-])ccc1O"
endpoint = "IC50"
comparative_sign = "="
experimental_result = 18

[[record]]
query_smiles = "COCCN1C(=O)/C(=C\\c2ccc(OCc3ccc(C(=O)O)cc3)c(OC)c2)SC1=S"
endpoint = "IC50"
comparative_sign = "="
experimental_result = 38

